# System: astro (control astrocytes)
# experimental.details: Drug repurposing screens with cells derived from glioblastoma tumor samples (AID 1345199); note: nearly all actives have a fitted effect of over 40% in size
# run.parameters: viability, ATP luminescence, 48 h; series mostly up to 45.9 µM
# Procedure: CD133+ cells were isolated from GBM patient biopsies and cultured as neurospheres. Neurospheres from four patients were used to screen the NCATS pharmaceutical collection (NPC) library of approved drugs and bioactive compounds. […] The neurospheres were incubated with drugs for 48 hours in 1536-well format, then assayed with an ATP content cell viability assay. […]
Records with an inconclusive call do not appear. The source made the active and inactive calls. Calls come from the whole dose curve; as a rule, active = well fitted inhibition curve with a large enough effect; inconclusive = small, poorly fitted or top-dose-only effect; inactive = flat fitted curve, though single readings scatter.
Write down the outcome that applies. Available outcomes: 1 (yes) = active, 0 (no) = inactive

// outcome(item) with item = COc1cc(C)c(Cc2cnc(N)nc2N)cc1OC
0 (no)

Try this compound too: OCC(O)CN1CCN(c2ccccc2)CC1 (configuration not stated)
0 (no)

And the next one, CC(O)CN(CCN(CC(C)O)CC(C)O)CC(C)O (configuration not stated) ?
0 (no)

Also check CC1(C)S[C@@H]2[C@H](NC(=O)Cc3ccccc3)C(=O)N2[C@H]1C(=O)O (tested in a mixture with another compound)
0 (no)

And what about the compound C[C@H](NC(CCc1ccccc1)C(=O)O)C(=O)N1CCC[C@H]1C(=O)O (some centres not stated) ?
0 (no)

Subsequent entry: NC(=O)NC(=O)Cc1ccccc1
0 (no)

Continuing:
Hi, sorry to bother you, what did the test record for Cc1ncc([N+](=O)[O-])n1CC(O)CCl (configuration not stated) ?
0 (no)

Here is the next compound: Nc1ncnc2c1ncn2[C@@H]1O[C@H](CO)[C@@H](O)[C@H]1O
0 (no)

Record: Nc1cc(=O)[nH]c(N)n1
0 (no)

Same question for CSc1ccc2c(c1)N(CCC1CCCCN1C)c1ccccc1S2 (configuration not stated) please.
1 (yes)

Same read-out for O=C(O)[C@H](O)c1ccccc1 ?
0 (no)

* * *

# experimental.details: qHTS of pediatric cancer cell lines to identify multiple opportunities for drug repurposing: Primary screen for LAN-5 cells (AID 1347100);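 note: plate controls were DMSO neutral control for no effect and bortezomib positive control for full effect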
# run.parameters: LAN-5 neuroblastoma viability, CellTiter-Glo luminescence, 48 h; series mostly up to 46 µM
Results filed as inconclusive are left out. The source made the active and inactive calls. Calls follow the shape of the dose curve; as a rule, active = well fitted cell-killing curve with a large enough effect; inconclusive = small, poorly fitted or top-dose-only effect; inactive = no such curve, though single readings can be large or run the other way.
reported.endpoint: activity change, negative = cytotoxic

Reference set, count: 4
Sample CC(O)CN(CCN(CC(C)O)CC(C)O)CC(C)O (stereo not given) — what was its activity change, negative = cytotoxic?
inactive

Request: O=c1[nH]c(=O)c2[nH]c(=O)[nH]c2[nH]1
19.2% [at 9.22 µM] (inactive)

Another compound: O=C1N=C(O)CN1/N=C/c1ccc(-c2ccc([N+](=O)[O-])cc2)o1
inactive

Would you mind doing CC(=O)Oc1c(C)c(C)c2c(c1C)CC[C@@](C)(CCC[C@H](C)CCC[C@H](C)CCCC(C)C)O2 as well?
inactive

Below: the item to evaluate.
What activity change, negative = cytotoxic value was documented for this compound, COc1ccc(Cl)cc1C(=O)NCCc1ccc(S(=O)(=O)NC(=O)NC2CCCCC2)cc1 ?
inactive

* * *

# experimental.details: qHTS for differential inhibitors of proliferation of Plasmodium falciparum line 3D7 (AID 1876)
# run.parameters: P. falciparum 3D7 proliferation inhibition; series mostly up to 28.7 µM
Records with an inconclusive call do not appear. Calls of active or inactive are those of the source. The call rests on the fitted dose curve; in most records, active means well fitted curve in the direction sought with a large enough effect; inconclusive means small, poorly fitted or top-dose-only effect, or another doubt; inactive means no such curve, though single readings can be large or run the other way.
Parameter call: string, one of y for active, n for inactive

Field: example entries. Status: answers known.
Could you kindly confirm the outcome this assay logged for CC(CN1c2ccccc2Sc2ccccc21)N(C)C (configuration not stated) ?
y

Entry OCc1cc(C(O)CNCCCCCCOCCCCc2ccccc2)ccc1O (configuration not stated) please
y

Further cases:
Record request — test call for CC(CN(C)C)CN1c2ccccc2CCc2ccccc21 (configuration not stated)
y

And the next one, C#CCN(C)Cc1ccccc1 ?
n

Follow-up item: COc1ccc(Cl)cc1C(=O)NCCc1ccc(S(=O)(=O)NC(=O)NC2CCCCC2)cc1
n

What do we get for OCCN1CCN(CCCN2c3ccccc3Sc3ccc(Cl)cc32)CC1 ?
y

Repeat for the following molecule: Nc1cc(=O)[nH]c(N)n1
n
